FPN EC50 listing for selected binders.
# measured.target: T1, human ferroportin (SLC40A1) fused in frame with GFP, stably expressed in HEK293 cells (human, UniProt Q9NP59 1-571)
# T1 sequence (looked up): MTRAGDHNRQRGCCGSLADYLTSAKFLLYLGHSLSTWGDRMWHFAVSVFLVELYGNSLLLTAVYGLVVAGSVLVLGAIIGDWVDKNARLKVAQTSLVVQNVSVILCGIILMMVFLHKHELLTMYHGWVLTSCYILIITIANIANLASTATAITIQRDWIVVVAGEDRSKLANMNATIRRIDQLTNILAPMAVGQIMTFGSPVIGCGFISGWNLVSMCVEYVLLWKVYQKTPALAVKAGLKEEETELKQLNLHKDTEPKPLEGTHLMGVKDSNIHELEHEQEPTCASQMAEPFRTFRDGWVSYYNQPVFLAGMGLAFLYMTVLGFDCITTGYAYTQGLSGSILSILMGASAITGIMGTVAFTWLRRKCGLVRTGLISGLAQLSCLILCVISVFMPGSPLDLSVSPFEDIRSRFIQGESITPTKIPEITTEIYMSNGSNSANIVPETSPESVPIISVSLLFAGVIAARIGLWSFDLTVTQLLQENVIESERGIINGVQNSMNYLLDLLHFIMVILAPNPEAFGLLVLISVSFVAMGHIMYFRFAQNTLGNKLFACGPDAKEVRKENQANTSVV
# procedure.text: cell-based or functional assay
Non-standard residues stand in square brackets, D forms with d. Groups on a side chain read outwards from the residue. *: point of attachment. Ala(1H-tetrazol-5-yl) = N[C@@H](Cc1nnn[nH]1)C(=O)O; Dip = N[C@H](C(=O)O)C(c1ccccc1)c1ccccc1; His(τ-Me) = Cn1cnc(C[C@H](N)C(=O)O)c1; Palmitoyl = CCCCCCCCCCCCCCCC(=O)*; β3hF = N[C@H](CC(=O)O)Cc1ccccc1; NMeK = CN[C@@H](CCCCN)C(=O)O; Isovaleryl = CC(C)CC(=O)*; (Me)Leu = methyl-leucine; AEEA = NCCOCCOCC(=O)O; Ahx = NCCCCCC(=O)O
Please respond with the number in nM and leave the unit unwritten.

Req: Give the value of FPN EC50 reported for the following: Isovaleryl-ETH[Dip]PAIK([Ahx-C10])[β3hF]-NH2 [Isovaleric Acid-E-T-H-[Dpa]-P-A-I-[Lys(Ahx_C10)]-[bhPhe]-NH2]
Resp: 123

Req: Look up and state reported FPN EC50 for Isovaleryl-LTH[Dip]PAIK([Ahx-Palmitoyl])[(Me)Leu]-NH2 [Isovaleric Acid-L-T-H-[Dpa]-P-A-I-[Lys(Ahx_Palm)]-[(Me)Leu]-NH2]
Resp: 508

Req: Report measured FPN EC50; entry is Isovaleryl-ETH[Dip]PAIK([AEEA-AEEA-Palmitoyl])[β3hF]-NH2 [Isovaleric Acid-E-T-H-[Dpa]-P-A-I-[Lys(1PEG2_1PEG2_Palm)]-[bhPhe]-NH2]
Resp: 73.7

Req: Tell me FPN EC50 reported for Isovaleryl-[Ala(1H-tetrazol-5-yl)]T[His(τ-Me)][Dip]PAIK([Ahx-Palmitoyl])[β3hF]-NH2 (SMILES CCCCCCCCCCCCCCCC(=O)NCCCCCC(=O)NCCCC[C@H](NC(=O)[C@@H](NC(=O)[C@H](C)NC(=O)[C@@H]1CCCN1C(=O)[C@@H](NC(=O)[C@H](Cc1cn(C)cn1)NC(=O)[C@@H](NC(=O)[C@H](Cc1nnn[nH]1)NC(=O)CC(C)C)[C@@H](C)O)C(c1ccccc1)c1ccccc1)[C@@H](C)CC)C(=O)N[C@H](CC(N)=O)Cc1ccccc1) [Isovaleric Acid-[Tet1]-T-[(1Me)His]-[Dpa]-P-A-I-[Lys(Ahx_Palm)]-[bhPhe]-NH2]
Resp: 63.1

Req: Write down FPN EC50 measured for item XETHXPX (N-term Isovaleric Acid; Dpa4; Lys(Ac)6; C-term NH2) [Isovaleric Acid-E-T-H-[Dpa]-P-[Lys(Ac)]-NH2]
Resp: 8410

Req: Consider the binder Isovaleryl-LT[His(τ-Me)][Dip]PAI[NMeK][β3hF]K([Ahx-Palmitoyl])-NH2 [Isovaleric Acid-L-T-[(1Me)His]-[Dpa]-P-A-I-[(N-Me)Lys)]-[bhPhe]-[Lys(Ahx_Palm)]-NH2] and give its recorded FPN EC50.
Resp: 95.9
